Reported activity, negative = inhibition values for the following compounds.
- test-summary: Stat Signaling Pathway (AID 446);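 note: ME-180 cervical cancer cells given 40 pM IL-6 alongside compound; SIE-controlled beta-lactamase reporter measured as 460/530 nm FRET emission ratio; % is set by controls: 0 for no effect and ±100 for the full control effect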
- assay-context: ME-180 (cervical carcinoma) SIE beta-lactamase reporter, IL-6 stimulated, 5 h; at 7.69 µM (top of the series) unless noted
Records with an inconclusive call do not appear.

- line-notation: "O=C(c1cccc(F)c1)N1CCC[C@@]2(CCN(c3ncccn3)C2)C1"
  activity, negative = inhibition, %: 1.15
- line-notation: "COCCn1c(=O)c(C)nc2cnc(OC)nc21"
  activity, negative = inhibition, %: -16.1
- line-notation: "CN(C)c1ncc2nc(-c3ccc(Cl)cc3)c(=O)n(CCC#N)c2n1"
  activity, negative = inhibition, %: 17.6
- line-notation: "COCC(=O)N1CCC[C@@]2(CCN(C(=O)Nc3ccccc3)C2)C1"
  activity, negative = inhibition, %: -3
